- TARGET_OF_ASSAY: CHRM2 (Homo sapiens, UniProt P08172)
- Construct: purchased Promega (in-house HiBiT-GPCR construct library, NanoBRET)
- Sequence (P08172 whole entry): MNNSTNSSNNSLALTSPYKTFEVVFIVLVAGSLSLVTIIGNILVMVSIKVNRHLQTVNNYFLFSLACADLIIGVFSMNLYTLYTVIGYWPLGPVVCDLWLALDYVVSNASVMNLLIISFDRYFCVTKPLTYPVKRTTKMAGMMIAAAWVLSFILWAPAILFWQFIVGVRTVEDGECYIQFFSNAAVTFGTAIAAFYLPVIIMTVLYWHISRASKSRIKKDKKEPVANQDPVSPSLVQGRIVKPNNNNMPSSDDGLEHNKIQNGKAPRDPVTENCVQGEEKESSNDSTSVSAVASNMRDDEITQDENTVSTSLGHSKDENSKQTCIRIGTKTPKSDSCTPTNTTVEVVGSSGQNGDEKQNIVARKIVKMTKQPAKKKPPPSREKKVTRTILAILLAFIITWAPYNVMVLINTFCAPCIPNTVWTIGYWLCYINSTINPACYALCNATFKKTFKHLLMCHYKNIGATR
- PROTOCOL: NanoBRET screen HiBiT-CHRM2 in HEK293
- Type: binding
- CONDITIONS: CHRM2; tracer 0.1μM
- Protocol: Each tracer candidate was screened across the entire library of HiBiT-GPCR constructs using NanoBRET as the detection modality. As depicted in Figure 4A, the specificity of interactions was evaluated through decrease in BRET due to competitive displacement of a bound tracer by excess parental compound. Each tracer was analyzed for binding to each HiBiT-GPCR fusion in the absence and in the presence of competing parental compound. […]

MOLECULE	NanoBRET Fold Response
CCCn1c(=O)c2[nH]c(-c3ccc(OCC(=O)NCCNC(=O)CCOCCNC(=O)c4ccc(CNC(=O)CCc5ccc6n5[B-](F)(F)[N+]5=C(c7ccc[nH]7)C=CC5=C6)cc4)cc3)nc2n(CCC)c1=O [XAC-3-NB590]	1.28
CC(C)N(CC[C@H](c1ccccc1)c1cc(CCNC(=O)CCOCCOCCOCCOCCNC(=O)CCc2ccc3n2[B-](F)(F)[N+]2=C(c4ccc[nH]4)C=CC2=C3)ccc1O)C(C)C [Tolterodine-2-NB590]	2.98
O=C(CCOCCOCCOCCOCCNC(=O)CCc1ccc2n1[B-](F)(F)[N+]1=C(c3ccc[nH]3)C=CC1=C2)NCCCN1CCN(C2=Nc3ccccc3Oc3ccc(Cl)cc32)CC1 [Loxapine-a-2-NB590]	1.07
COc1ccccc1N1CCN(CCCCN2C(=O)c3ccc(CNC(=O)CCOCCNC(=O)c4ccc(CNC(=O)CCc5ccc6n5[B-](F)(F)[N+]5=C(c7ccc[nH]7)C=CC5=C6)cc4)cc3C2=O)CC1 [NAN-190-3-NB590]	1.14
N#CN=C(NCCCOc1cccc(CN2CCCCC2)c1)NCCNC(=O)CCOCCOCCOCCOCCNC(=O)CCc1ccc2n1[B-](F)(F)[N+]1=C(c3ccc[nH]3)C=CC1=C2 [Aminopotentidine-2-NB590]	1.66
O=C(CCc1ccc2n1[B-](F)(F)[N+]1=C(c3ccc[nH]3)C=CC1=C2)NCCOCCOCCNC(=O)OCCOCCN1CCN(C2=Nc3ccccc3Sc3ccccc32)CC1 [Quetiapine-a-2-NB590]	1.56
CC(C)N(CC[C@H](c1ccccc1)c1cc(CCNC(=O)c2ccc(CNC(=O)CCc3ccc4n3[B-](F)(F)[N+]3=C(c5ccc[nH]5)C=CC3=C4)cc2)ccc1O)C(C)C [Tolterodine-BZ-NB590]	3.84
O=C(CCc1ccc2n1[B-](F)(F)[N+]1=C(c3ccc[nH]3)C=CC1=C2)NCc1ccc(C(=O)NCCOCCC(=O)N[C@@H]2CC[C@@]3(O)[C@H]4Cc5ccc(O)c6c5[C@@]3(CCN4CC3CC3)[C@H]2O6)cc1 [Naltrexone-3-NB590]	0.57
Cc1nc2n(c(=O)c1CCN1CCC(c3noc4cc(F)ccc34)CC1)CCCC2OC(=O)NCCOCCOCCOCCOCCNC(=O)CCc1ccc2n1[B-](F)(F)[N+]1=C(c3ccc[nH]3)C=CC1=C2 (stereo not shown) [Risperidone-2-NB590]	1.09
COc1ccccc1N1CCN(CCCCN2C(=O)c3ccc(CNC(=O)CCOCCOCCOCCOCCNC(=O)CCc4ccc5n4[B-](F)(F)[N+]4=C(c6ccc[nH]6)C=CC4=C5)cc3C2=O)CC1 [NAN-190-2-NB590]	1.13

These measurements were taken from paper PMC8151276.
